The molecules listed here are annotated with their CC50.
# Protocol Text: Cytotoxicity determination (HeLa)
# Assay type: cell-based
# Study Conditions: human, HeLa cells (DSM ACC 57)

Cc1c(C(F)(F)F)cc([N+](=O)[O-])c2sc(N3CCC4(CC3)OC[C@H](C)O4)nc(=O)c12 = > 50 µg/mL

# input Consider the molecule Cc1c(C(F)(F)F)cc2c(=O)nc(N3CCC4(CC3)OC[C@H](C)O4)sc2c1[N+](=O)[O-] and give its measured CC50.
# output 38.9 µg/mL

# input Please answer likewise for C[C@H]1COC2(CCN(c3nc(=O)c4cc(C(F)(F)F)cc([N+](=O)[O-])c4s3)CC2)O1 [BTZ043, reference compound]
# output > 50 µg/mL

# input How about this molecule: Cc1c(C(F)(F)F)cc([N+](=O)[O-])c2sc(N3CCN(CC4CCCCC4)CC3)nc(=O)c12
# output > 25 µg/mL

Source listed as patent US11155542B2.
